Hey, just so you know, these numbers are from patent US20140348836A1.

target: T1, CD40hfc (R&Dsystems, USA) (UniProt P25942 21-193); assay: SPR (Biacore 3000), CD40hfc amine-coupled on chip, antibody as analyte, 37 C, acetate buffer pH 5.4
T1 construct: Bought reagent; also called immobilized CD40 receptor; target; not shown: Fc part ('hfc') of the bought fusion
T1 sequence (P25942 21-193 limits assumed): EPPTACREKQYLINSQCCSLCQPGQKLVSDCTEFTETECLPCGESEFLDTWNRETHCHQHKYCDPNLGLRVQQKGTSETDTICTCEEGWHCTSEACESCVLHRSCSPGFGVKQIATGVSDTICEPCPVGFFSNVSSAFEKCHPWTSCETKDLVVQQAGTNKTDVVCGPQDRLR
experimental.readout: koff (s⁻¹)
Field format: number, assumed s⁻¹, no unit text.

Solved cases below.
binder	koff (s⁻¹)
Antibody B44 (antibody, V domains shown, Parent agonistic anti-CD40 antibody from the n-CoDeR library; Run alongside the IgG clones as 'B44 antibody' and detected with anti-human Ig on RAMOS cells; also called B44 antibody; original anti-CD40 antibody) VH: EVQLLESGGGLVQPGGSLRLSCAASGFTFSTYGMHWVRQAPGKGLEWLSYISGGSSYIFYADSVRGRFTISRDNSENALYLQMNSLRAEDTAVYYCARILRGGSGMDLWGQGTLVTVSS VL: QSVLTQPPSASGTPGQRVTISCTGSSSNIGAGYDVYWYQQLPGTAPKLLIYGNINRPSGVPDRFSGSKSGTSASLAISGLRSEDEADYYCAAWDDSLSGLVFGGGTKLTVLG	0.0055
Antibody clone B9 (antibody, human IgG1, lambda, V domains shown) VH: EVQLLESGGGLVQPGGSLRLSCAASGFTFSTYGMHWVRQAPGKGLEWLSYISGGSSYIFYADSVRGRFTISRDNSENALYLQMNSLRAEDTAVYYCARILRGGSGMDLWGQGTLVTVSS VL: QSVLTQPPSASGTPGQRVTISCTGSSSNIGAGYNVYWYQQLPGTAPKLLIYGNINRPSGVPDRFSGSKSGTSASLAISGLRSEDEADYYCAAWDGGLLGLVFGGGTKLTVLG	0.00032
Antibody clone A4 (antibody, human IgG1, lambda, V domains shown, Tested as purified antibody; full chains are assembled here from VH/VL plus these; also called A4 ANTI-CD40 ANTIBODY) VH: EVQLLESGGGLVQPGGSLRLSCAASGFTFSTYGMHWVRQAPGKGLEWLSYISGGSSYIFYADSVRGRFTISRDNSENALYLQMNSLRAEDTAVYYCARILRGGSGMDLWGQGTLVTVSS VL: QSVLTQPPSASGTPGQRVTISCTGSTSNIGAGYKVYWYQQLPGTAPKLLIYGNINRPSGVPDRFSGSKSGTSASLAISGLRSEDEADYYCAAWDDSLSGLVFGGGTKLTVLG	0.00022

Shift focus to the following entry.
Need koff, item Antibody clone A5 (antibody, human IgG1, lambda, V domains shown) VH: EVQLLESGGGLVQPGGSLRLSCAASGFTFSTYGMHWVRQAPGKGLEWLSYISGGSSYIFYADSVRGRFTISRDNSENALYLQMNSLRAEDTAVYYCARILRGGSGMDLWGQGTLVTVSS VL: QSVLTQPPSASGTPGQRVTISCTGSSSNIGAGYHVYWYQQLPGTAPKLLIYGSINRPSGVPDRFSGSKSGTSGSLAISGLRSEDEADYYCAAWDSSSSGLVFGGGTKLTVLG
0.00025
